Source listed as ChEMBL document CHEMBL1743341.

# tested.target: CYP3A4 (Homo sapiens, UniProt P08684)
# assay.comment: Mechanism based inhibition of human cytochrome P450 3A4 measured by testosterone 6-beta hydroxylation
# Type: ADME
# condition.description: probe testosterone (6-beta hydroxylation)
measurement.name: kinact (s⁻¹)
Give bare numbers, in s⁻¹.

# kinact lookup, item NNc1nnc(NN)c2ccccc12 [DIHYDRALAZINE]
0.000785

* * *

# tested.target: Cytochrome P450 3A4 (Homo sapiens, UniProt P08684)
# assay.comment: Mechanism based inhibition of human cytochrome P450 3A4 measured by nifedipine oxidation, omeprazole 3-hydroxylation and omeprazole sulfoxydation
# Type: ADME
Please respond with reported Ki for every item in the list.
Give bare numbers, in nM.

Recorded Ki for C/C(=C\COc1c2ccoc2cc2oc(=O)ccc12)CCC(OC(C)(C)C(O)CC/C(C)=C/COc1c2ccoc2cc2oc(=O)ccc12)C(C)(C)O (stereo not drawn) [FC726] , please?
130

Moving on to the next compound: C=C(C)C(CC/C(C)=C/COc1c2ccoc2cc2oc(=O)ccc12)OC(C)(C)C(O)CC/C(C)=C/COc1c2ccoc2cc2oc(=O)ccc12 (stereo not drawn)
310

Note: attention shifts to another entry.
Dear colleague, I am looking for the recorded Ki of the following compound: C/C(=C\COc1c2ccoc2cc2oc(=O)ccc12)CCC(O)C(C)(C)O (stereo not drawn) [DIHYDROXYBERGAMOTTIN]
5560

* * *

# tested.target: CYP1A2 (Homo sapiens, UniProt P05177)
# assay.comment: Mechanism based inhibition of human cytochrome P450 1A2 measured by 7-methoxyresorufin O-demethylation (MROD)
# Type: ADME
# condition.description: human, probe 7-methoxyresorufin (O-demethylation, MROD)
measurement.name: kinact (s⁻¹)
Answers are plain numbers, in s⁻¹.

Lab note: need kinact with CYP1A2 (Homo sapiens, UniProt P05177) for entry CC#Cc1ccc(-c2ccccc2)cc1 , please look it up.
0.00167

* * *

# tested.target: CYP2B1 (Rattus norvegicus)
# Sequence (P00176 whole entry): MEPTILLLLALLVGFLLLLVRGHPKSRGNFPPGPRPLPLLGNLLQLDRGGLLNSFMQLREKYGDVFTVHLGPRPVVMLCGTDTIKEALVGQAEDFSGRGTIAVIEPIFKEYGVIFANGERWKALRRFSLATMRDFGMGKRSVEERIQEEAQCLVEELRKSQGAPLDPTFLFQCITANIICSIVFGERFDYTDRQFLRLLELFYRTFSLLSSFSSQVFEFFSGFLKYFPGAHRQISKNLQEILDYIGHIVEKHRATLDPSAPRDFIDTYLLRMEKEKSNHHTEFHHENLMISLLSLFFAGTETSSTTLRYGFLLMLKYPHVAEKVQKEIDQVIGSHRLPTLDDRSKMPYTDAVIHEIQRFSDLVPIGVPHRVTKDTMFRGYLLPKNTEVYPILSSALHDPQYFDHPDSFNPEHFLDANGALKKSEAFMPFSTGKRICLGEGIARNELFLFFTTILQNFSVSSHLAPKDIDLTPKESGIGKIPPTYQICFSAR
# assay.comment: Mechanism based inhibition of rat cytochrome P450 CYP2B1 measured by 7-EFC O-deethylation activity
# Assay type: ADME
# condition.description: rat, probe 7-EFC (O-deethylation)
Consider the following molecules; for each one, report its kinact.
Numbers only, in s⁻¹.

Name the recorded kinact for S=C=NCc1ccccc1 [BENZYL ISOTHIOCYANATE] .
0.011

Look at each molecule and report its kinact.
1. C#CCN(C)CCCOc1ccc(Cl)cc1Cl
2. C#CCN(C)[C@H](C)Cc1ccccc1

1: 0.00467; 2: 0.00383

* * *

# tested.target: Cytochrome P450 1A2 (Homo sapiens, UniProt P05177)
# assay.comment: Mechanism based inhibition of human cytochrome P450 1A2 measured by phenacetin O-deethylation (POD)
# Assay type: ADME
Provide the reported Ki of each item.
Numbers only, in µM.

Can you share its Ki? I mean this compound: C[C@@H](c1cc2ccccc2s1)N(O)C(N)=O
98.2

# batch size: 3; output Ki per entry
1. NNC(=O)c1ccncc1
2. CC(c1cc2ccccc2s1)N(O)C(N)=O (racemic)
3. C[C@H](c1cc2ccccc2s1)N(O)C(N)=O

[56, 117, 66]

* * *

# tested.target: CYP2B6 (Homo sapiens, UniProt P20813)
# Sequence (P20813 whole entry): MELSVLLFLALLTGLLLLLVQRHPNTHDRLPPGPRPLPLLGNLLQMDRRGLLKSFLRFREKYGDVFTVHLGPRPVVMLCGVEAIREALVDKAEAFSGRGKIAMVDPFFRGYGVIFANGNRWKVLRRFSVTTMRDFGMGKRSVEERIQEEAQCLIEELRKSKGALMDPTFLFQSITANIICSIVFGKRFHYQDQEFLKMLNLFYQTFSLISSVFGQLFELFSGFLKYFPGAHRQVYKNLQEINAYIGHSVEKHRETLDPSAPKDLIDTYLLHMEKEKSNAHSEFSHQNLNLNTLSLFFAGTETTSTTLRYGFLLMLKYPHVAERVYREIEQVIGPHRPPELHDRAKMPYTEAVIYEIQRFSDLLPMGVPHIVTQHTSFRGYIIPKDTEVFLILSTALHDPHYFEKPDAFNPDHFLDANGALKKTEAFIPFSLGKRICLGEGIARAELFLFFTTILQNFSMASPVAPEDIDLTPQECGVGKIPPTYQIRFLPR
# assay.comment: Mechanism based inhibition of human cytochrome P450 CYP2B6 measured by 7-EFC O-deethylation activity
# Format: ADME
# condition.description: probe 7-EFC (O-deethylation)
measurement.name: kinact (s⁻¹)
Give bare numbers, in s⁻¹.

For CC1(C)C=Cc2c(ccc3c2OC[C@@H](c2ccc(O)cc2O)C3)O1 , what is its reported kinact?
0.00133

* * *

# tested.target: CYP2A6 (Homo sapiens)
# assay.comment: Mechanism based inhibition of human cytochrome P450 2A6 measured by coumarin 7-hydroxylation using human liver microsomes
# Type: ADME, Microsome
# condition.description: human, human liver microsomes, probe coumarin
measurement.name: kinact (s⁻¹)
Answers are plain numbers, in s⁻¹.

Please look up its kinact: Cc1coc2c1CCC(C)C2 (stereo unspecified)
0.00367

* * *

# tested.target: Cytochrome P450 1A2 (Rattus norvegicus)
# assay.comment: Mechanism based inhibition of rat cytochrome P450 CYP1A2 measured by 7-methoxyresorufin O-demethylation (MROD)
# Format: ADME
Answer each item with its documented Ki.
Answers are plain numbers, in nM.

Hi, could you look up Ki for each item in my list?
1. C#Cc1cc2cccc3ccc4cccc1c4c32
2. C#Cc1ccc(-c2ccccc2)cc1
3. C#Cc1cc2ccccc2c2ccccc12
4. CC#Cc1ccc2ccc3cccc4ccc1c2c34

1. 1200
2. 870
3. 30
4. 4

* * *

# tested.target: CYP1A1 (Homo sapiens)
# assay.comment: Mechanism based inhibition of human cytochrome P450 1A1 measured by 7-ethoxyresorufin O-deethylation (EROD)
# Type: ADME
# condition.description: human, probe 7-ethoxyresorufin (O-deethylation, EROD)
measurement.name: kinact

Returns the measured kinact for the input molecule. Input: CC#Cc1ccc(-c2ccccc2)cc1
0.00667 s⁻¹

* * *

# tested.target: Cytochrome P450 2B11 (Canis lupus familiaris, UniProt P24460)
# assay.comment: Mechanism based inhibition of dog cytochrome P450 CYP2B11 measured by Diazepam N1-demethylation using liver microsomes
# Assay type: ADME, Microsome
measurement.name: pKi
One number for each entry, as −log10 of the molar value.

I have this compound here, CC(Nn1nnc2ccccc21)c1ccccc1 (stereo unspecified) , and I need its recorded pKi.
6.34

* * *

# tested.target: Cytochrome P450 3A4 (Homo sapiens)
# assay.comment: Mechanism based inhibition of human cytochrome P450 3A4 measured by N-demethylation of erythromycin
# Type: ADME
measurement.name: Ki (µM)
One number for each entry, in µM.

I have this compound here, COc1cc2c(c(OC)c1OC)-c1c(cc3c(c1OC)OCO3)C[C@H](C)[C@](C)(O)[C@H]2OC(=O)c1ccccc1 [GOMISIN C] , and I need its recorded Ki.
0.399

* * *

# tested.target: Cytochrome P450 1A2 (Rattus norvegicus)
# assay.comment: Mechanism based inhibition of rat cytochrome P450 CYP1A2 measured by zolmitriptan metabolism
# Format: ADME
measurement.name: Ki (µM)
Answers are plain numbers, in µM.

// lookup Ki for COCCCC/C(=N\OCCN)c1ccc(C(F)(F)F)cc1
57.4

* * *

# tested.target: CYP2A6 (Homo sapiens)
# assay.comment: Mechanism based inhibition of human cytochrome P450 2A6 measured by coumarin 7-hydroxylation
# Type: ADME
# condition.description: human, probe coumarin
measurement.name: kinact (s⁻¹)
Answers are plain numbers, in s⁻¹.

Item CCCC(CCC)C(=O)O [VALPROIC ACID] has what recorded kinact?
0.0008

* * *

# tested.target: CYP2B11 (Canis lupus familiaris)
# Sequence (P24460 whole entry): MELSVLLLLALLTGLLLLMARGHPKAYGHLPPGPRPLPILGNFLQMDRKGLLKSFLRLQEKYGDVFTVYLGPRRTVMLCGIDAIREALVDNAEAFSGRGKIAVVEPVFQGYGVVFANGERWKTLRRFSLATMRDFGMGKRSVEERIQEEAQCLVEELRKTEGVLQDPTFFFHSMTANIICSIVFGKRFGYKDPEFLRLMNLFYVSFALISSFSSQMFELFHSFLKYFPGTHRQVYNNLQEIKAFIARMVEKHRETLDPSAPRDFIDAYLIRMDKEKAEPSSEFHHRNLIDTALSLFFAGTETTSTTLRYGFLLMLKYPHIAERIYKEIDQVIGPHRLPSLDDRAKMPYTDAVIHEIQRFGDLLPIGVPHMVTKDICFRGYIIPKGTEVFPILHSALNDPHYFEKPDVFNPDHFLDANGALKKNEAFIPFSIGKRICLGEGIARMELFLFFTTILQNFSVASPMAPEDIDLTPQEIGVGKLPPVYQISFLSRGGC
# assay.comment: Mechanism based inhibition of dog cytochrome P450 CYP2B11 measured by Diazepam N1-demethylation using recombinant enzyme
# Format: ADME
# condition.description: dog, recombinant CYP2B11, probe diazepam (N1-demethylation)
measurement.name: kinact (s⁻¹)
One number for each entry, in s⁻¹.

// lookup kinact for CC(Nn1nnc2ccccc21)c1ccccc1 (stereo unspecified)
0.025
